Cited source: patent US20050282755A1

Can you tell me MIC P. aeruginosa for the items I'm about to list?
Test system: Pseudomonas aeruginosa ATCC 27853
Experiment: MIC, NCCLS M7-A6 broth microdilution (Table 9, no superscript)
Assay type: cell-based
Conditions: ATCC 27853
Non-standard residues stand in square brackets, D forms with d. Residues, ends and D or L forms follow the SMILES beside them. *: point of attachment. Lauroyl = CCCCCCCCCCCC(=O)*; Octanoyl = CCCCCCCC(=O)*

{"columns": ["molecule", "testedOn", "MIC P. aeruginosa"],
 "data": [
  ["CCCCCCCC(=O)NCCCC[C@H](NC(=O)[C@H](CCCNC(=N)N)NC(=O)[C@H](CCSC)NC(=O)[C@H](Cc1ccccc1)NC(=O)[C@H](CC(N)=O)NC(=O)[C@H](CCCNC(=N)N)NC(=O)[C@H](C)NC(=O)[C@@H](NC(=O)[C@H](CC(=O)O)NC(=O)[C@H](CCCNC(=N)N)NC(=O)[C@H](Cc1c[nH]c2ccccc12)NC(=O)[C@H](CCCNC(=N)N)NC(=O)[C@H](CO)NC(=O)[C@@H](N)CCCNC(=N)N)C(C)C)C(N)=O [Peptide 184, H2N-RSRWRDVARNFMRK(Octanyl)-NH2] (H-RSRWRDVARNFMRK(Octanoyl)-NH2)", "Pseudomonas aeruginosa ATCC 27853", ">64 µg/mL"]
]}

# context switch: different molecule, same MIC P. aeruginosa
MIC P. aeruginosa reading for CCCCCCCCCCCC(=O)N[C@H](CCCNC(=N)N)C(=O)N[C@H](CO)C(=O)N[C@H](CCCNC(=N)N)C(=O)N[C@H](Cc1c[nH]c2ccccc12)C(=O)N[C@H](CCCNC(=N)N)C(=O)N[C@H](CC(=O)O)C(=O)N[C@@H](C(=O)N[C@H](C)C(=O)N[C@H](CCCNC(=N)N)C(=O)N[C@H](CC(=O)O)C(=O)N[C@H](Cc1ccccc1)C(=O)N[C@H](CCSC)C(=O)N[C@H](CCCNC(=N)N)C(N)=O)C(C)C [Peptide 249, Lauryl-rsrwrdvardfmr-NH2] (Lauroyl-[dR][dS][dR][dW][dR][dD][dV][dA][dR][dD][dF][dM][dR]-NH2) : 8 µg/mL
